experiment: NCI Yeast Anticancer Drug Screen. Data for the rad18 strain (AID 177); conditions: S. cerevisiae rad18 mutant growth inhibition; at 100.0 µM
About 79,000 compounds went through this panel and 15% of them were active in at least one assay; those are over-represented in the sample as a whole. Calls of active or inactive are those of the source. Cut-off read from the data, not from the text of the source: active = growth inhibition above about 70%; inactive = the rest.
Outcome codes: label 1 (active), label 0 (inactive)

>>> cat("C/C(=N\\Sc1ccccc1)c1ccccc1O")
"label 1"
>>> cat("CCOC(=O)/C(=C\\c1cccc(C)c1)C(C)=O")
"label 1"
>>> cat("CCC(C)(C)c1ccc(Oc2ccccc2)c(N)c1")
"label 1"
>>> cat("CCOP(=O)(OCC)/C(C#N)=C\\c1cccc2ccccc12")
"label 1"
>>> cat("O=C1c2cccc3cccc(c23)C(=O)N1O")
"label 1"
>>> cat("O=[N+]([O-])c1ccc2[nH]c3c(-c4ccccc4)nccc3c2c1")
"label 1"
>>> cat("Nc1cc2ccccc2cc1N")
"label 0"

Just for reference, PubChem BioAssay (NCI) is where these values come from.
